Data provenance: patent US20240109912A1

METRIC: melting point (°C)
Write the number in °C without appending the unit.

# COMPOUND, OBSERVED VALUE
records = [
    ("C=CC(=O)N1CCC(N2CCN(c3cc(C)c4c(c3)Nc3ncnc(N5CCS(=O)(=O)CC5)c3CO4)CC2)CC1", 203),
]

Which melting point value belongs to CC#CC(=O)N1CCC(N2CC(c3cc(C)c4c(c3)Nc3ncnc(N5CCS(=O)(=O)CC5)c3[C@H](C)O4)C2)CC1 (single isomer, unassigned) ? 203

Which melting point value belongs to C=CC(=O)N1CC(N2CCC(c3cc4c(c(C)n3)O[C@@H](C)c3c(ncnc3N3CCS(=O)(=O)CC3)N4)CC2)C1 (single isomer, unassigned) ? 247

Which melting point value belongs to C=CC(=O)N1CC(N2CCC(c3cc4c(c(C)n3)OCc3c(ncnc3N3CCS(=O)(=O)CC3)N4)CC2)C1 ? 257

Which melting point value belongs to C=CC(=O)N1CC(N2C3CCC2CC(c2ccc4c(c2)Nc2ncnc(N5CCOCC5)c2CO4)C3)C1 (stereo not shown) [compound 40] ? 212

Which melting point value belongs to CC#CC(=O)N1CCC(C)(N2CC(c3cc(C)c4c(c3)Nc3ncnc(N5CCS(=O)(=O)CC5)c3[C@@H](C)O4)C2)C1 (mixture of isomers) ? 244

Which melting point value belongs to C=CC(=O)N1CC(N2CCC(c3ccc4c(c3)Nc3ncnc(N5CCOCC5)c3[C@H](CC)O4)CC2)C1 (single isomer, unassigned) ? 123

Which melting point value belongs to C=CC(=O)N1CCN(C2CCN(c3cc(C)c4c(c3)Nc3ncnc(N5CCS(=O)(=O)CC5)c3CO4)CC2)CC1 ? 267

Which melting point value belongs to C=CC(=O)N1CC(N2CCC(c3cc(C)c4c(c3)Nc3ncnc(N5CC(CO)C5)c3CO4)CC2)C1 ? 180

====

# System: RNA polymerase II Serine 5 phosphorylation in A549 cells overexpressing CDK7 mutant (C312S)
# PROCEDURE SUMMARY: Imaging-based cellular RNA PolII Ser5 phosphorylation assay in A549 cells overexpressing CDK7-mutant (C312S)
# Type: cell-based, human
# MEASUREMENT SETUP: Homo sapiens, A549, A549 cells overexpressing CDK7 mutant (C312S); read-out: CDK7_ A549 mutant hCDK7(pIC50) (converted)
METRIC: IC50

Answered cases to consult:
# MOLECULE, METRIC, OBSERVED VALUE
rows = [
    ("C=CC(=O)N1CC(N2CCC(c3ccc4c(c3)Nc3ncnc(N5CCOCC5)c3[C@H](CC)O4)CC2)C1 (single isomer, unassigned) [compound 75]", "IC50", "> 10 µM"),
    ("C=CC(=O)N1CCC(N2CCC(c3cc4c(c(C)n3)OCc3c(ncnc3N3CCS(=O)(=O)CC3)N4)CC2)CC1 [compound 59]", "IC50", "> 10 µM"),
    ("C=CC(=O)N1CCC(N2CC(c3cc4c(c(C)n3)OCc3c(ncnc3N3CCS(=O)(=O)CC3)N4)C2)CC1 [compound 63]", "IC50", "> 10 µM"),
]

Which IC50 value belongs to C=CC(=O)N1CC(N2CCC(c3cc(C)c4c(c3)Nc3ncnc(N5CC(CO)C5)c3CO4)CC2)C1 [compound 107] ? > 10 µM
